ASSAYED TARGET: T1, MPDZ_7, O75970
T1 sequence (O75970 1146-1253, limits assumed, looked up): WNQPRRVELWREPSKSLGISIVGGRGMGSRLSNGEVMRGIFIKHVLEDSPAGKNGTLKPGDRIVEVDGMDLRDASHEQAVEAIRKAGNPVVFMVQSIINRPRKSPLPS
TEST NAME: holdup assay
Set-up: key: below the threshold = too weak to quantify, mostly under pKd 3.1 to 4
TEST SETTINGS: plain residues with an end cap or a label only (N-terminal biotin on a linker: ttds)
PROPERTY: pKd

- PPRQRSETQV [HPV82-E6, Q9IR59]: below the threshold
- SRSRRRETAL [HPV33-E6, P06427]: below the threshold
- SSIDLWETAL [SLC15A5, A6NIM6]: 6.09
- KLVIKTETTV [RASSF6, Q6ZTQ3]: below the threshold
- SGGKRKETLV [NET1, Q7Z628]: 4.35
- PSRDRKETSI [RALBP1, Q15311]: below the threshold
- SHSSKGETAV [FZD7, O75084]: below the threshold

// data source = paper PMC9482650
